Reported noFAD/FAD values are given for each entry in this list.
target-desc: Diaphorase
assay-summary: peptide array, 10 uM diaphorase, binding without FAD / with FAD
observable: noFAD/FAD

| binder | number |
| --- | --- |
| RSHPKHNVGSG | 1.39 |
| RQYQKHSYAKFSGSG | 2.1 |
| RYAYFQHLGGSG | 1.02 |
| EAVQKLLFSGSG | 0.304 |
